assay: qHTS Assay for Lipid Storage Modulators (AID 1519); settings: Drosophila S3 cells, BODIPY lipid droplet/cell ratio, laser cytometry; measured here: lipid channel max response; cells loaded with oleic acid
Results filed as inconclusive are left out.
Measure Name: max response

Molecule	Result
C[N+]1([O-])[C@@H]2CC[C@H]1CC(OC(=O)[C@@H](CO)c1ccccc1)C2 (stereo partly drawn)	-2.94%
c1cc2c(cc1C1OC[C@@H]3C(c4ccc5c(c4)OCO5)OCC13)OCO2 (stereo partly drawn)	26%
CCN1C[C@@]2(COC(=O)c3ccccc3N3C(=O)CC(C)C3=O)CC[C@H](OC)[C@]34C5C[C@@H]6[C@@H](OC)C[C@@](O)(C5[C@H]6OC)[C@@](O)(C13)[C@@H](OC)C24 (stereo partly drawn)	19.9%
O=C(Nc1cccc(F)c1)N1CCC2(CC1)CCN(C(=O)Oc1ccccc1)CC2	-28%
CC(=O)OC1CC[C@]2(C)C(CCC3C2CC[C@]2(C)C(C4=CC(=O)OC4)C(OC(C)=O)CC32O)C1 (stereo partly drawn)	14.6%

Would you kindly share the measured max response for COc1ccc2c(c1O)-c1c(OC)c(OC)cc3c1[C@H](C2)N(C)CC3 ?
2.2%

Would you kindly share the measured max response for CCN1C[C@]2(C)CC[C@H](O)[C@@]34[C@@H]5CC6[C@@H](OC)C[C@@](O)([C@@H]5[C@@H]6O)[C@H](C[C@@H]23)[C@H]14 ?
-11.4%

Would you kindly share the measured max response for C=C1C([C@@]2(C)C(OC(C)=O)CC(=O)O[C@@](C)(COC(C)=O)C2CC(=O)OC)C(OC=O)C(OC(=O)C(OC(C)=O)C(C)CC)[C@]2(C)C(c3ccoc3)CC(=O)C12O (stereo partly drawn) ?
13.8%

###

system: AA1029; assay: qHTS profiling for inhibitors of Plasmodium falciparum proliferation (AID 504749); further: nearly all actives have a fitted effect of over 60% in size; details: P. falciparum in erythrocytes, SYBR Green DNA, 72 h; series mostly up to 28.7 µM
Inconclusive results are not listed. Active and inactive are the calls of the source. Calls come from the whole dose curve; as a rule, active = well fitted inhibition curve with a large enough effect; inconclusive = small, poorly fitted or top-dose-only effect; inactive = flat fitted curve, though single readings scatter.
Respond using exactly one of the listed classes: active, inactive

Worked cases, answers included:
Compound	Tested Target	Group Label
CC(=O)OCC(=O)[C@@H]1CC[C@H]2[C@H]3CC[C@H]4C[C@@H](O)CC[C@]4(C)[C@@H]3C(=O)C[C@@]12C	AA1029	inactive
COc1cc(N)c(Cl)cc1C(=O)N[C@@H]1CN2CCC1CC2	AA1029	inactive
CO[C@@H](COC(N)=O)C1=C(N2CC2)C(=O)C(C)=C(N2CC2)C1=O	AA1029	active
C[C@]12CC[C@H](OS(=O)(=O)O)CC1=CCC1C2CC[C@]2(C)C(=O)CC[C@@H]12 (stereo partly drawn)	AA1029	inactive
C[N+]1([O-])[C@@H]2CC[C@H]1CC(OC(=O)[C@@H](CO)c1ccccc1)C2 (stereo partly drawn)	AA1029	inactive

Check the results log: what was the call for CC[C@@H]1[C@@H]2C[C@H]3[C@H]4N(C)c5ccccc5[C@@]45C[C@@H]([C@@H]2[C@@H]5O)N3[C@H]1O ?
inactive

Check the results log: what was the call for CC(C)(O)C1C2OC(=O)C1[C@]1(O)C[C@H]3O[C@]34C(=O)O[C@H]2[C@]14C (stereo partly drawn) (tested in a mixture with another compound) ?
inactive

Check the results log: what was the call for CC([C@H](O)c1ccccc1)N(C)C (stereo partly drawn) ?
inactive

###

biological target: Estrogen receptor (Homo sapiens) (UniProt P03372); experiment: qHTS assay for small molecule antagonists of estrogen receptor alpha signaling (AID 588513); settings: ER-alpha-UAS-bla HEK293, beta-lactamase ratio, antagonist mode; series mostly up to 76.9 µM
Sequence (P03372 whole entry, looked up): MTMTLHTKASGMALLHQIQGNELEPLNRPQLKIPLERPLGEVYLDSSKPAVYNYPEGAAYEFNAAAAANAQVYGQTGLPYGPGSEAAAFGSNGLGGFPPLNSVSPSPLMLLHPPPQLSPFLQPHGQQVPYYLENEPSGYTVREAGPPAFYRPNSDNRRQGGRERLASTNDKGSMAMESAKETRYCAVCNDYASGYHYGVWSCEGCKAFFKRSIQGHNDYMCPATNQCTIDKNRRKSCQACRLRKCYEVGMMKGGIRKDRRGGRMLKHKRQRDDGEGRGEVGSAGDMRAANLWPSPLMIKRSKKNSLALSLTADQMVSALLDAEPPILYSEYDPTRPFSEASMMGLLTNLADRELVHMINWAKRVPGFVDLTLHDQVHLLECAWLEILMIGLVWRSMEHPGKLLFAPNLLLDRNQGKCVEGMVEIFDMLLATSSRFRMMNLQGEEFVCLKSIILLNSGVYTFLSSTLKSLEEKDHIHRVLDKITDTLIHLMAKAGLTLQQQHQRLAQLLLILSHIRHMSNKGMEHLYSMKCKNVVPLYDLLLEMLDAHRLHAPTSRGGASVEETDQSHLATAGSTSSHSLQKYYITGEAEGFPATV
Active and inactive are the calls of the source. Calls follow the shape of the dose curve; as a rule, active = well fitted curve in the direction sought with a large enough effect in the signal ratio, with a control signal flat (not every such curve was filed as active); inconclusive = small, poorly fitted or top-dose-only effect, or effect the other way, or a change in a side signal; inactive = no such curve, though single readings can be large or run the other way; the % refers to the signal ratio.
Respond using exactly one of the listed classes: 1 for active, 0 for inactive

Worked cases, answers included:
Compound	Group Label
C=CCOC(C)=O	0
CCCSC(=O)Cl	0
CCOc1ccc(N)cc1	0
O=C1C(Cl)=C(Cl)C(=O)C(Cl)=C1Cl	1
O=S1OCC2C(CO1)C1(Cl)C(Cl)=C(Cl)C2(Cl)C1(Cl)Cl (stereo not drawn)	0

Check the results log: what was the call for C=CC(=O)OCC ?
0

Check the results log: what was the call for C=CC(C)=O ?
0

Check the results log: what was the call for CNC(=O)Oc1cccc2c1OC(C)(C)O2 ?
0

###

assay: qHTS for differential inhibitors of proliferation of Plasmodium falciparum line W2 (AID 1883); conditions: Plasmodium falciparum W2 proliferation inhibition; series mostly up to 28.7 µM;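 further: parasites grown with compound for 72 h before lysis and staining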
Records with an inconclusive call do not appear. Calls of active or inactive are those of the source. The call rests on the fitted dose curve; in most records, active means well fitted curve in the direction sought with a large enough effect; inconclusive means small, poorly fitted or top-dose-only effect, or another doubt; inactive means no such curve, though single readings can be large or run the other way.
Respond using exactly one of the listed classes: active, inactive

Compound	Group Label
C[C@]12CC[C@H](OS(=O)(=O)O)CC1=CCC1C2CC[C@]2(C)C(=O)CC[C@@H]12 (some centres not stated)	inactive
C[C@@H]1O[C@@H](O[C@H]2C[C@@H](O)[C@]3(CO)[C@H]4[C@H](O)C[C@]5(C)[C@@H]([C@@H]6COC(=O)C6)CC[C@]5(O)[C@@H]4CC[C@]3(O)C2)[C@H](O)[C@H](O)[C@H]1O	inactive
C=CCN1CCc2cccc3c2C1Cc1ccc(O)c(O)c1-3 (configuration not stated)	active
C#CCN(C)C(C)Cc1ccccc1 (configuration not stated)	inactive
C[C@]12CC[C@H]3[C@@H](CCC4C[C@H](O)CC[C@@]43C)[C@@H]1CC[C@@H]2O (some centres not stated)	inactive
CCCN(CCC)[C@@H]1CCc2c(F)ccc(O)c2C1	active
C[N+]1(C)C2CC(OC(=O)C(CO)c3ccccc3)CC1C1OC12 (configuration not stated)	inactive
COc1cc(C=C(C#N)C#N)cc(O)c1O	active
CCCN1CCC[C@@H](c2cccc(C#N)c2)C1	active
S=C(S)N1CCCC1	active

Check the results log: what was the call for C=CCN1CC[C@@]2(C)c3cc(O)ccc3CC1[C@@H]2C ?
active

Check the results log: what was the call for CCc1c(C(=O)OC)ncc2[nH]c3cc(OC)c(OC)cc3c12 ?
active

Check the results log: what was the call for Nc1ncnc2c1ncn2[C@@H]1O[C@H](COP(=O)(O)CP(=O)(O)OP(=O)(O)O)[C@H](O)[C@H]1O ?
inactive

Check the results log: what was the call for CN1C[C@@H](CS(=O)(=O)N(C)C)C[C@@H]2c3cccc4c3c(cn4C)C[C@H]21 ?
active

Check the results log: what was the call for CCCN1CCc2cccc3c2C1Cc1ccc(O)c(O)c1-3 (configuration not stated) ?
active

Check the results log: what was the call for CNCC[C@@H](Oc1ccc(C(F)(F)F)cc1)c1ccccc1 ?
active

Check the results log: what was the call for COc1cc(C[C@@H](C)N)c(OC)cc1I ?
active

###

assay: Primary qHTS for inhibitors of MERS-S pseudo-typed particle cell entry (AID 1479149); settings: MERS-S pseudotyped particle entry, luciferase; series mostly up to 57.1 µM; further: nearly all actives have a fitted effect of over 60% in size
Records with an inconclusive call do not appear. The source made the active and inactive calls. Calls come from the whole dose curve.
Respond using exactly one of the listed classes: active, inactive

Compound	Group Label
CNC(C)CC1CCCC1 (stereo unspecified)	inactive
CO[C@H]1C[C@H](O[C@@H]2[C@H](C)O[C@H](O[C@@H]3/C(C)=C/C[C@@H]4C[C@@H](C[C@]5(C=C[C@H](C)[C@@H](C6CCCCC6)O5)O4)OC(=O)[C@@H]4C=C(C)C(O)[C@H]5OC/C(=C\C=C\[C@@H]3C)[C@]54O)C[C@@H]2OC)O[C@@H](C)[C@@H]1O (stereo partly specified)	inactive
CC[C@H]1C2C[C@H]3[C@@H]4N(C)c5ccccc5[C@@]45C[C@H](C2[C@H]5O)N3[C@@H]1O (stereo partly specified)	inactive

Check the results log: what was the call for CCCOc1cc(N)ccc1C(=O)OCCN(CC)CC ?
inactive

Check the results log: what was the call for C=CC[N@@+]12CC[C@]34c5ccccc5N5/C=C6\C7N(/C=C(\C53)[C@@H](C[C@@H]41)/C(=C/CO)C2)c1ccccc1[C@@]71CC[N@@+]2(CC=C)C/C(=C\CO)[C@@H]6C[C@@H]12 (stereo partly specified) ?
inactive

Check the results log: what was the call for CCOc1ccc(Cc2cc([C@@]34OC[C@@](CO)(O3)[C@@H](O)[C@H](O)[C@H]4O)ccc2Cl)cc1 ?
inactive

Check the results log: what was the call for CCC(O)c1ccccc1 (stereo unspecified) ?
inactive

###

experiment: Primary qHTS for Vero E6 cytotoxicity: counterscreen for inhibitors of SARS-S pseudo-typed particle cell entry (AID 1479150); settings: cell viability; series mostly up to 57.1 µM; on activity change, negative = cytotoxicity: on the % scale 0 is the no-effect control and ±100 the full control effect
Results filed as inconclusive are left out. Active and inactive are the calls of the source. The call rests on the fitted dose curve.
Measure Name: activity change, negative = cytotoxicity

Examples with their reported activity change, negative = cytotoxicity follow.
Molecule	Result
Nc1nc(CC(=O)Nc2ccc(CCNC[C@H](O)c3ccccc3)cc2)cs1	inactive
CN[C@@H]1[C@@H](O)[C@@H](O[C@@H]2[C@@H](O)[C@H](OC3O[C@H](CN)[C@@H](O)[C@H](O)[C@H]3O)[C@@H](N)C[C@H]2NC(=O)[C@@H](O)CN)OC[C@]1(C)O (some centres not stated)	inactive
CCCC(=O)Nc1ncnc2c1ncn2C1O[C@@H]2COP(=O)(O)O[C@H]2[C@H]1OC(=O)CCC (some centres not stated)	inactive
C#C[C@]1(O)CC[C@@H]2[C@@H]3CCC4=CCCC[C@@H]4[C@H]3C(=C)C[C@@]21CC	inactive
OC[C@H]1O[C@@H](OC[C@H]2O[C@@H](O[C@@H]3[C@@H](O)[C@H](O)O[C@H](CO)[C@H]3O)[C@H](O)[C@@H](O[C@@H]3O[C@H](CO)[C@@H](O)[C@H](O)[C@H]3O)[C@@H]2O)[C@H](O)[C@@H](O)[C@@H]1O	inactive
CCOC(=O)C=C(C)C=CC[C@@H](C)CCCC(C)C	inactive

Then there is this molecule:
Would you kindly share the measured activity change, negative = cytotoxicity for C=C(C)CNc1ccc(C(C)C(=O)O)cc1 (configuration not stated) ?
inactive
